tested on: MS2 coat protein; test: apparent KD of MS2 coat protein; designed switch direction (-1 OFF switch, 1 ON switch): -1; higher = weaker reporter binding; settings: input ligand: microRNA oligo, concentration not stated
reported.metric: apparent KD of MS2 coat protein (nM)
Return type: number; implicit unit nM.

# query: apparent KD of MS2 coat protein of entry UUAAAUCAUGUAGGAUAUGCGUGGCGAAGCUAUGCAGAAGGACAUGAGGAUCACCCAUGUGCUAGCGUCUGCGUACAGAUGCAA [JL ENG1 1.11] (Eterna round: R96, puzzle: Exclusion NG 1) 65.2

# query: apparent KD of MS2 coat protein of entry UUAAAUCAUGUAGGAUAUGCAUAGCAAAGCUAUGCAGAAGGACAUGAGGAUCACCCAUGUGCUUGCGUCCGCGUACGGAUGCUA [Mat - Exclusion NG 1 - Mod of JL - D68] (Eterna round: R96, puzzle: Exclusion NG 1) 90.5

# query: apparent KD of MS2 coat protein of entry AAUAACAGAGGAUAUACUGUUUUAUGUGUUUGUUGUUUUGAACAUGAGGAUCACCCAUGUAGAAGGCUGAUUAA [JMF 53] (Eterna round: R96, puzzle: Exclusion 2) 31

# query: apparent KD of MS2 coat protein of entry UAUUAACAAGCUAGGUCCCACAUGAGGAUCACCCAUGUGCUCGUCUUAUAAGGUACUGUGACGAAAGUCACGGUACC [Sensor 3, v1 - 79] (Eterna round: R96, puzzle: Sensor v3, turn-off variant 1) 464

# query: apparent KD of MS2 coat protein of entry GCAGAAAGUGUAGGAUAUAGAAAUUAGCGGAAACGCAAUACAUGAGGAUCACCCAUGUUUCCUCACUAGAAGGGCAAAAGCUGC [EXNG2 V2 f] (Eterna round: R96, puzzle: Exclusion NG 2) 12.8

Reference source for all entries: the supplement of paper PMC9170038
